Test: Pharmacokinetic study in rats
Assay type: in vivo, Sprague-Dawley (SD) rats
Details: Sprague-Dawley, rat, plasma; male SD rats, IV, dose 1 mg/kg
measured endpoint: clearance (mL/min/kg)

CCn1c(-c2cc(C#CCN3CCCOCC3)cnc2[C@H](C)OC)c2c3cc(ccc31)-c1csc(n1)C[C@H](NC(=O)CC(C)C)C(=O)N1CCC[C@H](N1)C(=O)OCC(C)(C)C2 (single isomer, unassigned) [Compound Z803] = 1.83
CCn1c(-c2cc(C#CCN3CCN(C)C(=O)C3)cnc2[C@H](C)OC)c2c3cc(ccc31)-c1csc(n1)C[C@H](NC(=O)[C@H]1[C@H](C)[C@@H]1C)C(=O)N1CCC[C@H](N1)C(=O)OCC(C)(C)C2 (atropisomer, axis not shown; (Ra)) [Compound Z793] = 3.16
CCn1c(-c2cc(C#CCN3CCC(C(F)(F)F)CC3)cnc2[C@H](C)OC)c2c3cc(ccc31)-c1csc(n1)C[C@H](NC(=O)[C@H]1[C@H](C)[C@@H]1C)C(=O)N1CCC[C@H](N1)C(=O)OCC(C)(C)C2 (atropisomer, axis not shown; (Ra)) [Compound Z778] = 5.31

I = CCn1c(-c2cc(C#CCN3CCS(=O)(=O)CC3)cnc2[C@H](C)OC)c2c3cc(ccc31)-c1csc(n1)C[C@H](NC(=O)[C@H]1[C@H](C)[C@@H]1C)C(=O)N1CCC[C@H](N1)C(=O)OCC(C)(C)C2 (atropisomer, axis not shown; (Ra)) [Compound Z838]
II = CCn1c(-c2cc(C#C[C@@H]3COCCN3C)cnc2[C@H](C)OC)c2c3cc(ccc31)-c1csc(n1)C[C@H](NC(=O)[C@H]1[C@H](C)[C@@H]1C)C(=O)N1CCC[C@H](N1)C(=O)OCC(C)(C)C2 (atropisomer, axis not shown; (Ra)) [Compound Z672]
Problem: // returns I or II , whichever has the lower clearance In your reply, give the label of the chosen option.
Result: I
